- Test system: Acinetobacter baumannii strains
- Method Summary: Minimum inhibitory concentration (CLSI M07), Example 2, 20 strains
- Format: cell-based
- Details: strain BAA-1795; sulbactam/avibactam 4:1, concentration of the named component
Observed Property: MIC of the strain BAA-1795 (component in the combination) (µg/mL)
# value in µg/mL; strip the unit string

# annotated cases, reported MIC of the strain BAA-1795 (component in the combination) shown
NC(=O)[C@@H]1CC[C@@H]2CN1C(=O)N2OS(=O)(=O)O
2
CC1(C)[C@H](C(=O)O)N2C(=O)C[C@H]2S1(=O)=O
8
NC(=O)[C@@H]1CC[C@@H]2CN1C(=O)N2OS(=O)(=O)[O-].[Na+] [Avibactam sodium, avibactam sodium]
2

Moving on to another compound below.
Task item: Quickly give me recorded MIC of the strain BAA-1795 (component in the combination) for CC1(C)[C@H](C(=O)[O][Na+])N2C(=O)C[C@H]2S1(=O)=O [Sulbactam sodium, sulbactam sodium]
Reply: 8

Origin of values: patent US12697325B2
